What GI50 was measured for each of the following?
Test system: SNB-75 CNS
ASSAY METHOD TEXT: NCI tumour cell line growth inhibition, 48 h

COC(=O)[C@]12CCC(C)(C)C[C@H]1C1=CC[C@@H]3[C@@]4(C)C/C(=C/c5cccnc5)C(=O)C(C)(C)[C@@H]4CC[C@@]3(C)[C@]1(C)CC2 :: 17600 nM
CCCNC(=S)N/N=C(\C)c1ccccn1 :: 1500 nM

Next compound, GI50 to be filled in.
Query :: # returns recorded GI50 (system: SNB-75 CNS) for `Cc1[nH]c(N=Nc2ccccc2)nc1N=Nc1ccccc1`
Result :: 1660 nM

* * *

Tested on: A498 renal
ASSAY METHOD TEXT: NCI tumour cell line growth inhibition, 48 h; in the data active = GI50 below about 0.43 µM; inactive = the rest
Returns: one label drawn from T for active, F for inactive

COc1cc(Cn2c(-c3ccccc3)cc3c2-c2oncc2CC3)cc(OC)c1OC :: T
COc1cc2c3c(n(CCCBr)c(=O)c2cc1OC)-c1ccc(NC(C)=O)cc1C3=O :: F

Query :: Record request — test call for `NCCCCn1c2c(c3ccccc3c1=O)C(=O)c1ccccc1-2`
Result :: F

Query :: How about this molecule: `C=C1C(=O)O[C@H]2[C@H]1CC/C(COC(=O)/C=C\C(=O)NCc1ccc(Cn3c(=O)sn(-c4ccc(C#N)cc4)c3=O)cc1)=C\CC[C@@]1(C)O[C@@H]21`
Result :: F

Query :: How about this molecule: `C[C@]12CC[C@@H]3c4ccc(Oc5nc(N6CC6)nc(N6CC6)n5)cc4CC[C@H]3[C@@H]1CCC2=O`
Result :: F

Query :: How about this molecule: `COC(=O)c1ccc2c(c1)n(Cc1ccc3ccccc3c1)c[n+]2Cc1ccc2ccccc2c1`
Result :: F

Query :: How about this molecule: `Nc1nccc(-c2c(-c3ccc(F)cc3)ncn2CCCN2CCOCC2)n1`
Result :: F

Query :: How about this molecule: COc1ccc(C2CC(=O)c3c(O)c(OC)c(OC)c(OC)c3O2)c(O)c1 (centres undefined)
Result :: T

Query :: How about this molecule: COc1ccc(C2CC(=O)c3c(OC)cc(OC)cc3O2)cc1 (centres undefined)
Result :: F

* * *

Dear all, this message contains GI50 results, target or system MCF7 breast.

COc1ccc(OC(=O)O[C@H]2[C@H](O[C@H]3[C@@H](O)COC(O[C@H]4C[C@H]5[C@@H]6CC=C7C[C@@H](O)CC[C@]7(C)[C@H]6CC[C@]5(C)[C@H]4[C@H](C)C(=O)CCC(C)C)[C@@H]3OC(C)=O)OC[C@@H](O)[C@@H]2O)cc1 (some centres undefined) :: 78.2 nM
C[C@]12CC[C@@H]3c4ccc(Oc5nc(N6CC6)nc(N6CC6)n5)cc4CC[C@H]3[C@@H]1CCC2=O :: 2780 nM

Dear reader, for each entry below, please note its GI50.
1. COc1ccc(C2CC(=O)c3c(OC)cc(OC)cc3O2)cc1 (centres undefined)
2. CCCNC(=S)N/N=C(\C)c1ccccn1
3. CCCCCCCCCCC(O)C1CCC(C2CCC(C(O)CCCCC(O)CCCCCC(O)CC3=CC(C)OC3=O)O2)O1 (centres undefined)
4. Cc1[nH]c(N=Nc2ccccc2)nc1N=Nc1ccccc1
5. CC12CCCC(CC(=O)c3[nH]c4ccccc4c31)C2 (centres undefined)
6. COc1cccc(N=Cc2c3ccccc3c(=O)n3c2oc2ccccc23)c1
7. COc1cccc(NCc2nnc(Nc3ccc(Cl)cc3)c3ccccc23)c1

Result ::
["> 100000 nM", "< 10 nM", "23500 nM", "2730 nM", "400 nM", "4060 nM", "938 nM"]

* * *

Test system: SK-MEL-5 melanoma
ASSAY METHOD TEXT: NCI tumour cell line growth inhibition, 48 h
We use 10 µM as the dividing line for TGI: on or above the line is True, below is False.

Below, 4 molecules whose answers are already recorded.
CCOC(=O)c1c(C)n(Cc2ccc(OC)cc2)c2c1cc(O)c1[nH]c3c(c12)CCCC3 :: False
CCOC(=O)Cn1sc2ncc([N+](=O)[O-])cc2c1=O :: True
CCCCNC(=O)NS(=O)(=O)c1ccc(N2N=C(c3ccc(C)cc3C)CC2c2ccc(N(C)C)cc2)cc1 (configuration not stated) :: False
COc1ccccc1N1C(=O)/C(=C\c2cccc(Oc3ccccc3)c2)SC1c1ccccc1 (configuration not stated) :: True

Query :: Hello, I need to know if `S=C1Cc2c([nH]c3ccccc23)-c2ccccc2N1` has measured TGI not below 10 µM. Thanks!
Result :: True

Query :: How about this molecule: `CCOC(=O)N/N=C(/N)Cc1ccccc1`
Result :: True

Query :: How about this molecule: `Cc1ccc(C(=O)/C=C/c2ccccc2O)c(C)c1`
Result :: True

Query :: How about this molecule: `COc1cc2c(/C=C3/C(=O)Nc4cccc(Cl)c43)c(Cl)n(Cc3ccccc3)c2cc1C`
Result :: True

Query :: How about this molecule: CCC(C)(O)c1cn(-c2cccc(S(=O)(=O)O)c2)nn1 (configuration not stated)
Result :: True

* * *

System: NCI-H226 lung
ASSAY METHOD TEXT: NCI tumour cell line growth inhibition, 48 h
REPORTED ENDPOINT: TGI

CN(C)C(=S)SN(C)C(=O)Nc1ccccc1 :: > 92.4 µM

Dear reader, for each entry below, please note its TGI.
1. N#[O+].O=S(=O)([O-])[O-].[NH2-].[NH2-].[NH2-].[NH2-].[NH2-].[Ru+5]
2. Nc1c(-c2ccc(Br)cc2)[n+]([O-])c2ccccc2[n+]1[O-]
3. CC[C@]12C=CCN3CC[C@@]4(c5ccc(OC)cc5N(C)[C@H]4[C@@](O)(C(=O)OC)[C@@H]1OC(C)=O)[C@@H]32
4. CCOC(=O)/C(O)=C(/C=NC(=S)c1ccncc1)C(=O)OCC
5. CNC(=O)N1CCN(C(=O)NC)CCN(C(=O)NC)CC1
6. CC(=O)[O][Hg][c]1c(C)c(C)c(C)c(C)c1C
7. CCOc1cc(NC(C)=O)ccc1C(=O)NN1C(=O)C(Oc2ccccc2)C1c1ccc(O)c(OC)c1 (stereo not given)

Result ::
1. > 100 µM
2. > 100 µM
3. > 200 µM
4. > 100 µM
5. > 100 µM
6. 10 µM
7. > 100 µM

* * *

System: OVCAR-3 ovarian
ASSAY METHOD TEXT: NCI tumour cell line growth inhibition, 48 h
What TGI was measured for each of the following?

Known TGI results, listed for orientation:
O=C1C2=C(CC3C(C2)C3(Br)Br)C(=O)C2=C1CC1C(C2)C1(Br)Br (stereo not given) :: > 100 µM
CC12CCCC(CC(=O)c3[nH]c4ccccc4c31)C2 (stereo not given) :: 2.61 µM
O=C(c1ccc(Cl)cc1Cl)N(C(=O)N1CCCCC1)c1ccccc1 :: > 100 µM
COc1cc(Cc2cc(OC)c(OC)c(OC)c2)ccc1O :: 52.4 µM

Next molecule, TGI to be filled in.
Query :: Report TGI for COc1cc([C@@H]2c3cc4c(cc3C(O[C@@H]3O[C@@H]5CO[C@@H](c6cccs6)OC5[C@H](O)[C@H]3O)C3COC(=O)[C@@H]32)OCO4)cc(OC)c1O (stereo not given in full) please.
Result :: 1.19 µM

* * *

System: UO-31 renal
ASSAY METHOD TEXT: NCI tumour cell line growth inhibition, 48 h
What TGI was measured for each of the following?

Known TGI results, listed for orientation:
Cc1[nH]c(N=Nc2ccccc2)nc1N=Nc1ccccc1 :: 13 µM
CC1=C2C3=C(C)C(=O)C(C)(C)CC[C@@]3(C)[C@]2(C)CCC(C)(C)C1=O :: > 100 µM
COc1ccc2c(c1)CCCc1cn[nH]c1-2 :: > 100 µM
N#CC1=C(N2CCCC2)NC(=O)CC1=O :: > 100 µM
CN(CCCNc1ccc2ncn3c4ccccc4c(=O)c1c23)CCCN1C(=O)c2cccc3cc([N+](=O)[O-])cc(c23)C1=O :: 2.26 µM
C1=C2C3=[N+](CCCC3)CC2Cc2ccsc21 (stereo unspecified) :: > 100 µM

Dear reader, for each entry below, please note its TGI.
1. O=c1c2ccccc2nnn1-c1n[nH]c2ccccc12
2. C[C@]12CC[C@@H]3c4ccc(O)cc4CC[C@H]3[C@@H]1CC[C@@H]2NS(=O)(=O)c1ccc(C(F)(F)F)cc1
3. CC#CC(=O)Nc1ccccc1CC(c1c[nH]c2ccccc12)c1c[nH]c2ccccc12
4. COc1cc(Cn2c(-c3ccccc3)cc3c2-c2oncc2CC3)cc(OC)c1OC
5. CNC1C(=O)C(C)C(O)(C(CC(C)C(O)/C=C/C=C/CNC(=O)C(C)(C)C(O)\C(C)=C/C=C\C=C\Cc2cnc(C)o2)OC)C12C(=O)OC2COC (stereo unspecified) (tested in a mixture with another compound)
6. C=CCNc1ccc(C)cc1
7. Nc1c(-c2ccc(Br)cc2)[n+]([O-])c2ccccc2[n+]1[O-]

Result ::
1. > 100 µM
2. 3.43 µM
3. 25.4 µM
4. > 100 µM
5. 67.3 µM
6. > 100 µM
7. > 100 µM

Dear reader, for each entry below, please note its TGI.
1. Clc1cccc(Cl)c1C1SCC2=Nc3ccccc3CN21 (stereo unspecified)
2. COc1ccc(OC)c2c1C(=O)C(Cl)=C(N1CCN(CCOCCO)CC1)C2=O
3. Cc1cccc2c(N)c3cccc(C(=O)NCCCNCCN)c3nc12
4. Oc1ccc2ccccc2c1N=Nc1ccc(F)cc1
5. S=C(/N=c1/sc(Nc2ccccc2)nc2sc3c(c12)CCCC3)Nc1ccccc1
6. CC(=O)OC1CC2OC(Cc3ccccc32)O1 (stereo unspecified)
7. CC(C)(C)OC(=O)N(CCCN(CCn1c2c(c3ccccc3c1=O)C(=O)c1ccccc1-2)C(=O)OC(C)(C)C)CCn1c2c(c3ccccc3c1=O)C(=O)c1ccccc1-2
8. CCOC(=O)[C@H]1Nc2ccc(C)cc2C2c3ccccc3CC21 (stereo partly specified)

Result ::
["43.2 µM", "29.9 µM", "46.8 µM", "> 100 µM", "> 62.5 µM", "> 100 µM", "> 50 µM", "> 100 µM"]
